Assay: Pharmacokinetic study in mice (IV, PO)
Type: in vivo, mice (C57BL/6)
Details: female, C57BL/6; Table A; Mouse Plasma; PO; 10 mg/kg; read-out: Cmax (5 min)
metric-name: Cmax (ng/mL)
Note: unit ng/mL is implicit; provide only the numeric part.

Query :: Name the reported Cmax value associated with the compound O=C(N[C@H]1CC[C@@H](Oc2nc(N3CCOCC3)cc3ncccc23)CC1)c1ncccn1 [Compound 123]
Result :: 2380

----------
Target: DNA-PK (Homo sapiens, UniProt P78527)
Construct: purchased Invitrogen PR9107A
Assay: DNA-PK Assay for Biochemical Enzymatic Inhibition (ADP Glo Kinase assay)
Conditions: Table 2
pIC50: −log10 of the molar value.
metric-name: pIC50

Query :: Name the reported pIC50 value associated with the compound O=C(N[C@H]1CC[C@@H](Oc2nc(N3CCOCC3)cc3ncc(O)cc23)CC1)c1ncccn1 [LFA115]
Result :: 9.00 to 9.30

Query :: Name the reported pIC50 value associated with the compound CS(=O)(=O)Nc1cnc2cc(N3CCOCC3)nc(O[C@H]3CC[C@@H](NC(=O)c4ncccn4)CC3)c2c1 [LFA015]
Result :: > 9.30

Query :: Name the reported pIC50 value associated with the compound CC(c1cnc([N+](=O)[O-])n1C)N(c1cnc2cc(N3CCOCC3)nc(OC3CCC(Nc4ncccn4)CC3)c2c1)S(C)(=O)=O (centres unmarked) [LFA010]
Result :: 6.82 to 8.00

Query :: Name the reported pIC50 value associated with the compound CN(C)C(=O)c1cnc(N[C@H]2CC[C@@H](Oc3nc(N4CCOCC4)cc4ncc(NS(C)(=O)=O)cc34)CC2)nc1 [LFA030]
Result :: > 9.30

Query :: Name the reported pIC50 value associated with the compound Oc1cnc2cc(N3CCOCC3)nc(O[C@H]3CC[C@@H](Nc4ncccn4)CC3)c2c1 [LFA117]
Result :: > 9.30

Query :: Name the reported pIC50 value associated with the compound CNC(=O)c1cnc(N[C@H]2CC[C@@H](Oc3nc(N4CCOCC4)cc4ncc(NS(C)(=O)=O)cc34)CC2)nc1 [LFA029]
Result :: > 9.30

Query :: Name the reported pIC50 value associated with the compound Nc1cnc2cc(N3CCOCC3)nc(O[C@H]3CC[C@@H](Nc4ncccn4)CC3)c2c1 [LFA107]
Result :: > 9.30

Query :: Name the reported pIC50 value associated with the compound Cn1c(CN(c2cnc3cc(N4CCOCC4)nc(OC4CCC(Nc5ncccn5)CC4)c3c2)S(C)(=O)=O)cnc1[N+](=O)[O-] (centres unmarked) [LFA008]
Result :: 6.82 to 8.00

Query :: Name the reported pIC50 value associated with the compound CS(=O)(=O)Nc1cnc2cc(N3CCOCC3)nc(O[C@H]3CC[C@@H](Nc4ncccn4)CC3)c2c1 [LFA006]
Result :: > 9.30

Query :: Name the reported pIC50 value associated with the compound CS(=O)(=O)Nc1cnc2cc(N3CCOCC3)nc(O[C@H]3CC[C@@H](n4ccnc4)CC3)c2c1 [LFA017]
Result :: > 9.30

Query :: Name the reported pIC50 value associated with the compound CS(=O)(=O)Nc1cnc2cc(N3CCOCC3)nc(O[C@H]3CC[C@@H](Nc4ncc(C(F)(F)F)cn4)CC3)c2c1 [LFA022]
Result :: 9.00 to 9.30

Query :: Name the reported pIC50 value associated with the compound CS(=O)(=O)Nc1cnc2cc(N3CCOCC3)nc(O[C@H]3CC[C@@H](Nc4ncc(C#N)cn4)CC3)c2c1 [LFA025]
Result :: > 9.30

Query :: Name the reported pIC50 value associated with the compound CS(=O)(=O)Nc1cnc2cc(N3CCOCC3)nc(O[C@H]3CC[C@@H](Nc4ncc(C(N)=O)cn4)CC3)c2c1 [LFA028]
Result :: 9.00 to 9.30

Query :: Name the reported pIC50 value associated with the compound Cn1c(CN(c2cnc3cc(N4CCOCC4)nc(OC4CCC(n5ccnc5)CC4)c3c2)S(C)(=O)=O)cnc1[N+](=O)[O-] (centres unmarked) [LFA018]
Result :: 6.82 to 8.00
